B1: TPR 5TU (parent)
chain: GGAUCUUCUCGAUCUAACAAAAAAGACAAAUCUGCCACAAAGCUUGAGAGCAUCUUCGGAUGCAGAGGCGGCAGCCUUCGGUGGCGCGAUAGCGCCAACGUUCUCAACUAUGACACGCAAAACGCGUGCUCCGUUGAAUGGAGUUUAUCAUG

# Variants of: B1
# protocol_text: polymerase ribozyme fitness, log enrichment relative to wild type (log ratio); higher = more active; in vitro selection for triplet polymerase activity
This sample holds only a part of the variants without activity.
I'd appreciate it if you could supply polymerase ribozyme fitness (log ratio) values for the items below.

stdin: What does the record list as polymerase ribozyme fitness (log ratio) for U82G C95A A110U A138U ?
stdout: ≤ -4.2

stdin: Entry A26U C51U G58C : reported polymerase ribozyme fitness (log ratio) = ?
stdout: -2.08

stdin: Given A26U A47C A49C G80C C85A A113G A150U , state its recorded polymerase ribozyme fitness (log ratio).
stdout: ≤ -4.2

stdin: Quick one: polymerase ribozyme fitness (log ratio) of G71A C76G U82A G83C C131A ?
stdout: ≤ -4.2

stdin: Report polymerase ribozyme fitness (log ratio) for A47G U61A please.
stdout: -1.41

stdin: Name the reported polymerase ribozyme fitness (log ratio) value associated with the variant U9A C14A A23U A30C C36A C95U A110U
stdout: ≤ -4.2

stdin: Quick check: polymerase ribozyme fitness (log ratio) of A47U U61A C75A C76U G88U ?
stdout: ≤ -4.2

stdin: Entry A20C C85U A89G A106G : reported polymerase ribozyme fitness (log ratio) = ?
stdout: -2.07

stdin: Would you mind telling me what polymerase ribozyme fitness (log ratio) value was observed for C10G A91G A97G C108A C118G ?
stdout: ≤ -4.2

stdin: Entry C10A A20G A41G G46A A47C C57U C85G G133U has what polymerase ribozyme fitness (log ratio)?
stdout: ≤ -4.2

stdin: Can you look up the measured polymerase ribozyme fitness (log ratio) of U44A C72G C79A A150C for me?
stdout: ≤ -4.2

stdin: Requested read-out: polymerase ribozyme fitness (log ratio). Entry: C27G A106U
stdout: -3.92
